- System: corn (Zea mays)
- assayProcedure: Test C pre/postemergence
- Type: in vivo
- experimentalSetup: Preemergence, 62 g ai/ha; scale 0 to 100, 0 no effect, 100 complete control
Plant response rating, Corn listing for selected compounds.

>  <compound>
COC(=O)c1nc(C2CC2)nc(N=CN(C)C)c1Br

>  <Plant response rating, Corn>
0

$$$$
>  <compound>
CCOC(=O)C(Cl)c1nc(C2CC2)nc(N)c1Br (centres unmarked)

>  <Plant response rating, Corn>
0

$$$$
>  <compound>
CCCCOC(=O)c1nc(C2CC2)nc(N)c1Cl

>  <Plant response rating, Corn>
35

$$$$
>  <compound>
CCCOC(=O)c1nc(C2CC2)nc(N)c1Br

>  <Plant response rating, Corn>
0

$$$$
>  <compound>
CN(C)N=Cc1nc(C2CC2)nc(N)c1Br

>  <Plant response rating, Corn>
10

$$$$

---

- Test system: wheat (Triticum aestivum)
- assayProcedure: Test B pre/postemergence
- Type: in vivo
- experimentalSetup: Postemergence, 500 g ai/ha; scale 0 to 100
- Description: […] At the same time, plants selected from these crop and weed species and also blackgrass (Alopecurus myosuroides) and wild oat (Avena fatua) were treated with postemergence applications of test chemicals formulated in the same manner. […] Treated plants and controls were maintained in a greenhouse for 13 to 15 days, after which time all species were compared to controls and visually evaluated. […]
Entries whose Plant response rating, Wheat is below 40 take TRUE; entries at or above 40 take FALSE.

>  <compound>
COC(=O)c1nc(-c2ccc(C(F)(F)F)cc2)nc(N)c1Cl [Compound 44]

>  <className>
TRUE

$$$$
>  <compound>
COC(=O)CNc1nc(C2CC2)nc(C(=O)OC)c1Br [Compound 10]

>  <className>
TRUE

$$$$
>  <compound>
CCCOC(=O)c1nc(C2CC2)nc(N)c1Br [Compound 15]

>  <className>
FALSE

$$$$
>  <compound>
COC(=O)c1nc(C2CC2C)nc(N)c1Br (stereo not drawn) [Compound 28]

>  <className>
TRUE

$$$$
>  <compound>
CCOC(=O)c1nc(C2CC2)nc(NOC)c1Br [Compound 52]

>  <className>
TRUE

$$$$
>  <compound>
COC(OC)c1nc(C2CC2)nc(N)c1F [Compound 46]

>  <className>
TRUE

$$$$
>  <compound>
COC(=O)Cc1nc(C2CC2)nc(N)c1Br [Compound 13]

>  <className>
TRUE

$$$$
>  <compound>
CCOC(=O)Cc1nc(C2CC2)nc(N=CN(C)C)c1Br [Compound 33]

>  <className>
TRUE

$$$$
>  <compound>
CC(C)OC(=O)c1nc(C2CC2)nc(N)c1Br [Compound 14]

>  <className>
FALSE

$$$$

---

Plant response rating, Foxtail, Giant listing for selected compounds.
- Test system: giant foxtail (Setaria faberii)
- assayProcedure: Test B pre/postemergence
- Format: in vivo
- experimentalSetup: Preemergence, 125 g ai/ha; scale 0 to 100 (0 no effect, 100 complete control)

>  <compound>
COC(=O)c1nc(-c2ccc(F)cc2)nc(N)c1Br

>  <Plant response rating, Foxtail, Giant>
10

$$$$
>  <compound>
CCCCOC(=O)c1nc(C2CC2)nc(N)c1Br

>  <Plant response rating, Foxtail, Giant>
30

$$$$
>  <compound>
CCOC(=O)C(C)c1nc(C2CC2)nc(N)c1Br (stereo not shown)

>  <Plant response rating, Foxtail, Giant>
0

$$$$
>  <compound>
Nc1nc(C2CC2)nc(C(=O)[O-])c1Br.[Na+]

>  <Plant response rating, Foxtail, Giant>
10

$$$$
>  <compound>
COC(=O)c1nc(-c2ccc(C(F)(F)F)cc2)nc(N)c1Cl

>  <Plant response rating, Foxtail, Giant>
20

$$$$
>  <compound>
COC(=O)c1nc(C2CC2C)nc(N)c1Br (stereo not shown)

>  <Plant response rating, Foxtail, Giant>
30

$$$$
>  <compound>
COCc1nc(C2CC2)nc(N)c1Br

>  <Plant response rating, Foxtail, Giant>
10

$$$$
>  <compound>
CCOC(=O)Cc1nc(C2CC2)nc(N=CN(C)C)c1Br

>  <Plant response rating, Foxtail, Giant>
0

$$$$
>  <compound>
CCOC(=O)c1nc(C2CC2)nc(N2CCCC2)c1Br

>  <Plant response rating, Foxtail, Giant>
0

$$$$
>  <compound>
Nc1nc(C2CC2)nc(C(=O)O)c1Br

>  <Plant response rating, Foxtail, Giant>
50

$$$$
>  <compound>
COC(=O)c1nc(-c2ccc(Cl)cc2)nc(N)c1Br

>  <Plant response rating, Foxtail, Giant>
10

$$$$
>  <compound>
CCOC(=O)c1nc(C2CC2)nc(NOC)c1Br

>  <Plant response rating, Foxtail, Giant>
0

$$$$
>  <compound>
CCCOC(=O)c1nc(C2CC2)nc(N)c1Cl

>  <Plant response rating, Foxtail, Giant>
90

$$$$

From: patent US8802597B2
